# target.of.assay: human EGFR WT (NIH/3T3 cells, EGF-induced) (Homo sapiens)
# Sequence (P00533 25-1210): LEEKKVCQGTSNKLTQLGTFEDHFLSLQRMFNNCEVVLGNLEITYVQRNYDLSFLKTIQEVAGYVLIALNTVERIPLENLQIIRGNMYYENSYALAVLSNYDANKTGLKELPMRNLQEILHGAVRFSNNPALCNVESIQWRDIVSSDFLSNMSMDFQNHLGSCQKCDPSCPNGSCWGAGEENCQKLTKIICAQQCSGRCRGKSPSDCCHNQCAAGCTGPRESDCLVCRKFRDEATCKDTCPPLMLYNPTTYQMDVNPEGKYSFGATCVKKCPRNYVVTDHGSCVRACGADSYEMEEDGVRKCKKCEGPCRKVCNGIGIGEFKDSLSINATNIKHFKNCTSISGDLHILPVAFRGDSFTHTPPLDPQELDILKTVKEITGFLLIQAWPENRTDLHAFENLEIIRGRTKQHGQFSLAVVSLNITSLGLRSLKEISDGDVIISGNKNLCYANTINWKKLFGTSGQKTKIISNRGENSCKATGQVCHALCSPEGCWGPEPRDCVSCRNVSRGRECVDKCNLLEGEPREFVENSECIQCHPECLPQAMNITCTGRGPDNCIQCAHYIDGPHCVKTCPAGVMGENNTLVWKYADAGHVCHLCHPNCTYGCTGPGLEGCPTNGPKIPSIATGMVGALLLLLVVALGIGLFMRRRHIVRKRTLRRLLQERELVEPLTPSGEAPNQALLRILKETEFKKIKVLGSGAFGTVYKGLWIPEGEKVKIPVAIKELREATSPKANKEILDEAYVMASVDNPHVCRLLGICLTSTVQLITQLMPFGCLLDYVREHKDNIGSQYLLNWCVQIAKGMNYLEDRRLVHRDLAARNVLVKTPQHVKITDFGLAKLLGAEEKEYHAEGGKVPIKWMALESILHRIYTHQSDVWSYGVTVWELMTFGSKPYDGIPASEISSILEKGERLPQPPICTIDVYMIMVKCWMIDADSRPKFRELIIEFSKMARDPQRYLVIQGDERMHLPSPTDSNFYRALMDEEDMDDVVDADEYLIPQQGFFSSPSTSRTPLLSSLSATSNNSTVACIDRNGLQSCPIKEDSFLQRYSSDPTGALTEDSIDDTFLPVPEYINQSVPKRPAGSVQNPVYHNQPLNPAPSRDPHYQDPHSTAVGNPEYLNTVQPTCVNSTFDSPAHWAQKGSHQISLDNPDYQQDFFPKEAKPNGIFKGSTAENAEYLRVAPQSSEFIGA
# assay.method.text: EGFR target modulation in engineered NIH/3T3 cell lines (phospho-EGFR Y1068 AlphaLISA), EGFR WT
# Type: cell-based
# condition.parameters: engineered NIH/3T3 cells, read-out: NIH3T3 IC50 (μM) EGFR (WT)
IC50 by entry:
Only the number, expressed in µM, is required.

In the examples that follow, each entry is paired with its recorded IC50.
>>> print(df.to_string())
                                   compound                           target_of_assay  measured_metric  reported
0  Cc1cccc2nc(NC(=O)c3cc(F)cc(F)c3)n(C3CCCCN(C(=O)/C=C/CN(C)C)C3)c12 (stereo not shown)  human EGFR WT (NIH/3T3 cells, EGF-induced) (Homo sapiens)             IC50     0.271
1  C=CC(=O)N1CCCC(n2c(NC(=O)c3cccc(C(F)(F)F)c3)nc3c2CCN(C(C)=O)C3)C1 (stereo not shown)  human EGFR WT (NIH/3T3 cells, EGF-induced) (Homo sapiens)             IC50       8.2
2  COc1ccc2nc(NC(=O)c3ccnnc3)n([C@@H]3CCCCN(C(=O)/C=C/CN(C)C)C3)c2c1Cl  human EGFR WT (NIH/3T3 cells, EGF-induced) (Homo sapiens)             IC50      0.38
3  Cc1cccc2nc(NC(=O)c3cccc(C#N)c3)n(C3CCCCN(C(=O)/C=C/CN(C)C)C3)c12 (stereo not shown)  human EGFR WT (NIH/3T3 cells, EGF-induced) (Homo sapiens)             IC50     0.053
4  C=CC(=O)N1CCCC[C@@H](n2c(NC(=O)c3cccc(C(F)(F)F)c3)nc3cccc(C(F)(F)F)c32)C1  human EGFR WT (NIH/3T3 cells, EGF-induced) (Homo sapiens)             IC50       4.4

Quick note, IC50 for CCOc1cc(C(=O)Nc2nc3cccc(C)c3n2C2CCCCN(C(=O)/C=C/CN(C)C)C2)ccn1 (stereo not shown) landed at 0.012

* * *

IC50 by entry:
# target.of.assay: H1975 (EGFR L858/T790M) (Homo sapiens, UniProt P00533, L858R/T790M)
# Sequence (P00533 25-1210 T790M/L858R): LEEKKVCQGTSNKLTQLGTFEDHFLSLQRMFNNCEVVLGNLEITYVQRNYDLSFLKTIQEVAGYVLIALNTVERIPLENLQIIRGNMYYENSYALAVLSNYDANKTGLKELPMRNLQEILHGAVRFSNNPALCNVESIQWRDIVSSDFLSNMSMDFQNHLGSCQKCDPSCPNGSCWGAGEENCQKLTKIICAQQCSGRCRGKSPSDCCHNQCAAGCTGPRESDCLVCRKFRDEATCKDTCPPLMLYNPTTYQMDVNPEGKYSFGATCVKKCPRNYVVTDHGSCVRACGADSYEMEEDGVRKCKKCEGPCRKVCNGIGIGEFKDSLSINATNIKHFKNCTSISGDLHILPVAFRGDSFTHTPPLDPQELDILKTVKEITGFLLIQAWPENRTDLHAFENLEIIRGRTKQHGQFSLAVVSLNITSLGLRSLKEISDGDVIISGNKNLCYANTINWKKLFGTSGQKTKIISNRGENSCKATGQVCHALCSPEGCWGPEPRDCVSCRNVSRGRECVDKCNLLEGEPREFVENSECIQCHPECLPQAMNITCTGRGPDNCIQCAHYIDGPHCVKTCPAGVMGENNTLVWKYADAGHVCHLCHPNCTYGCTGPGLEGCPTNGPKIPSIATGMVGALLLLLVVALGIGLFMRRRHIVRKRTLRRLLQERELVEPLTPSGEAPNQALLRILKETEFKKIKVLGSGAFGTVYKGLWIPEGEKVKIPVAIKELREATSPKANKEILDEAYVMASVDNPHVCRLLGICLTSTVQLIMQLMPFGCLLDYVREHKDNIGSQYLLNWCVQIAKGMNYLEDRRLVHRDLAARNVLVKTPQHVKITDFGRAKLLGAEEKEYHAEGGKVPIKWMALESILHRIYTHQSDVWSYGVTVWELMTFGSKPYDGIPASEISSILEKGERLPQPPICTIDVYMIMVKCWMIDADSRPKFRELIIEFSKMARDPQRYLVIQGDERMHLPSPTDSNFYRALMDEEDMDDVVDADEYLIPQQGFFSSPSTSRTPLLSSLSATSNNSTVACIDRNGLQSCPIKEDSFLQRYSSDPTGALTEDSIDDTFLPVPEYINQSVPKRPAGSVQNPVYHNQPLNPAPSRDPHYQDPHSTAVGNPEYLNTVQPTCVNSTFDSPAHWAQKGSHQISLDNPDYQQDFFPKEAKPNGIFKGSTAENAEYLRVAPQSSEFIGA
# assay.method.text: EGFR target modulation in H1975 cell line (phospho-EGFR Y1173 ELISA)

In [3]: df
Out[3]:
                                   compound                           target_of_assay  measured_metric  reported
0  C=CC(=O)N1CCCC[C@@H](n2c(NC(=O)c3ccccc3)nc3cc(CN4CCCC4)cc(C)c32)C1  H1975 (EGFR L858/T790M) (Homo sapiens, UniProt P00533, L858R/T790M)             IC50    < 1 nM
1  Cc1cccc2nc(NC(=O)c3cccc(-n4cnnn4)c3)n(C3CCCCN(C(=O)/C=C/CN(C)C)C3)c12 (stereo not drawn)  H1975 (EGFR L858/T790M) (Homo sapiens, UniProt P00533, L858R/T790M)             IC50      2 nM

Now turn to the next compound.
Quick note, IC50 for `C=CC(=O)N1CCCC[C@@H](n2c(NC(=O)c3ccnc(C)c3)nc3cc(CN4CCCCC4)cc(C)c32)C1` landed at < 1 nM
